Entries and their IC50 values follow.
- measured.target: adenosine A2A receptor (Homo sapiens (Human), UniProt P29274)
- Sequence (P29274 whole entry): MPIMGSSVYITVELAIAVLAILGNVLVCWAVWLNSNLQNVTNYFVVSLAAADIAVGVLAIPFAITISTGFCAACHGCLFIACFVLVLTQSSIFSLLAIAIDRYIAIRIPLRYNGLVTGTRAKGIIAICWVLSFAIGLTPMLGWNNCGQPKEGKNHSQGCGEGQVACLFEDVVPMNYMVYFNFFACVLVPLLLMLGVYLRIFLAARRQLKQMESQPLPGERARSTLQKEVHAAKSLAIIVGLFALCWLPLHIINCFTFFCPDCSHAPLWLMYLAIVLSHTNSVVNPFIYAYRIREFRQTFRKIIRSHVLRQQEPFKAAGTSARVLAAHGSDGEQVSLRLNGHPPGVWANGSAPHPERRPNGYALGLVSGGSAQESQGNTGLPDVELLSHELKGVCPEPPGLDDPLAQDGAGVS
- experiment.summary: Adenosine receptor activity assay (Table 1), A2A activity
- Assay type: biochemical
- cond: read-out: Ave A2A cAMP IC50

IC50 reading for `C[C@H](Nc1nc(C(=O)N2CC[C@@H](O)C2)c2sc(N)cc2n1)c1ccccn1` : > 0.5 µM

Consider `O=C(c1nc(NCc2cnccn2)nc2ccsc12)N1CCC1` . Its measured IC50 is > 0.5 µM

IC50 for `C[C@H](Nc1nc(C(=O)NCC2CCN(Cc3ccccc3)CC2)c2sccc2n1)c1cccnc1` is 0.1 to 0.5 µM

// sample C[C@H](Nc1nc(C(=O)N2CCC(C(=O)OC(C)(C)C)C2)c2sccc2n1)c1cncc(F)c1 (some centres unmarked) , its IC50 was 0.1 to 0.5 µM

molecule `O=C(c1nc(NCCn2ccnc2)nc2ccsc12)N1CCCC1` , IC50 observed: > 0.5 µM

New cases:
Value of measured IC50 for the entry `CNc1cc2nc(N[C@@H](C)c3cncc(F)c3)nc(C(=O)N3CCC3)c2s1` : 0.1 to 0.5 µM

get_value(item= `C[C@H](Nc1nc(C(=O)NC2CCC2)c2sccc2n1)c1ccccn1` , readout=IC50) returns 0.01 to 0.05 µM

The recorded IC50 for entry `C[C@H](Nc1nc(C(=O)N[C@@H]2CCN(C(=O)OC(C)(C)C)C2)c2sccc2n1)c1ccccn1` equals 0.01 to 0.05 µM

###

- measured.target: adenosine A2A receptor (Homo sapiens (Human))
- experiment.summary: Adenosine receptor activity assay (Table 1), A2A activity
- Assay type: biochemical
- cond: read-out: Ave A2A cAMP IC50
pIC50: −log10 of the molar value.
The following compounds are shown together with reported pIC50 values.

Field pIC50 (entry `COC(=O)c1ccc(CCNC(=O)c2nc(N[C@@H](C)c3cncc(F)c3)nc3ccsc23)cc1` ) reads < 6.30

In plain terms, `C[C@H](Nc1nc(C(=O)N2CC[C@H](CO)C2)c2sccc2n1)c1cncc(F)c1` has a documented pIC50 of 6.30 to 7.00

Measured pIC50, `C[C@H](CO)NC(=O)c1nc(N[C@@H](C)c2ccccn2)nc2ccsc12` : 6.30 to 7.00

New cases:
Entry `C[C@H](Nc1nc(C(=O)N2CC[C@H](NC(=O)OC(C)(C)C)C2)c2sccc2n1)c1ccccn1` — recorded pIC50 = 7.00 to 7.30

###

// reported IC50 for each item listed
- measured.target: adenosine A2B receptor (Homo sapiens (Human))
- Sequence (P29275 whole entry): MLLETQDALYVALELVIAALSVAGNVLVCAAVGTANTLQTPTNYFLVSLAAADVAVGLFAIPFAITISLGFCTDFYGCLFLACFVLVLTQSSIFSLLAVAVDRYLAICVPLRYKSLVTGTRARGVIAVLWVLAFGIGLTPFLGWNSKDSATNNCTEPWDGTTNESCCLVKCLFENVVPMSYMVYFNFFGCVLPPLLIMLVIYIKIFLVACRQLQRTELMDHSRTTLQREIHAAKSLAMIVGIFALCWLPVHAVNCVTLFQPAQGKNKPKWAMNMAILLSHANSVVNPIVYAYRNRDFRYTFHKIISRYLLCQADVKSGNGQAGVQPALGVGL
- experiment.summary: Adenosine receptor activity assay (Table 1), A2B activity
- Assay type: biochemical
- cond: read-out: Ave A2B cAMP IC50

Would you please look over these solved cases?
For COCC1CN(C(=O)c2nc(N[C@@H](C)c3ccccn3)nc3cc(C)sc23)C1 [Example Z514] the compound record lists IC50 as < 10 nM

Sure, the documented IC50 for C[C@H](Nc1nc(C(=O)NCCS(C)(=O)=O)c2sccc2n1)c1ccccn1 [Example Z215] is 100 to 500 nM

IC50 for C[C@H](Nc1nc(C(=O)NCc2cncc(C(F)(F)F)c2)c2sccc2n1)c1ccccn1 [Example Z200] is 100 to 500 nM

Field IC50 (entry Cc1cc2nc(N[C@@H](C)c3cncc(F)c3)nc(C(=O)N3CC(C(=O)OC(C)(C)C)C3)c2s1 [Example Z573] ) reads 10 to 50 nM

Looking up Cc1cc2nc(N[C@@H](C)c3cncc(F)c3)nc(C(=O)N3CC[C@@H](CN)C3)c2s1 [Example Z597] , I found its IC50 recorded as 10 to 50 nM

---
Given item C[C@H](Nc1nc(C(=O)NCc2ncc[nH]2)c2sccc2n1)c1ccccn1 [Example Z304] , the value recorded as its IC50 is 100 to 500 nM

Measured IC50 of C[C@H](Nc1nc(C(=O)NC[C@@H](C)O)c2sccc2n1)c1ccccn1 [Example Z162] : 10 to 50 nM

Value of measured IC50 for the entry Cc1cc2nc(N[C@@H](C)c3cncc(F)c3)nc(C(=O)N3CC[C@H](NC(=O)OCc4ccccc4)C3)c2s1 [Example Z473] : 10 to 50 nM

Kindly note the recorded IC50 for C[C@H](Nc1nc(C(=O)NCCC2CCCC2)c2sccc2n1)c1ccccn1 [Example Z424] , which is 50 to 100 nM

###

- measured.target: adenosine A1 receptor (Homo sapiens (Human), UniProt P30542)
- Sequence (P30542 whole entry): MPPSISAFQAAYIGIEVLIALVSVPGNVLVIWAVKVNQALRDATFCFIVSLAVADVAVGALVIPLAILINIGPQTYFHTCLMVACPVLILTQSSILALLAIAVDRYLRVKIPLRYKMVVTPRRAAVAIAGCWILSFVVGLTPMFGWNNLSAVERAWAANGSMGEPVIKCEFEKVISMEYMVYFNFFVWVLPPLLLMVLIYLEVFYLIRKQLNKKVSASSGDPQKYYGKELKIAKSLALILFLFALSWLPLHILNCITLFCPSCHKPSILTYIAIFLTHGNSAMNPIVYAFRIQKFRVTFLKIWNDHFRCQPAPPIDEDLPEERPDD
- experiment.summary: Adenosine receptor activity assay (Table 1), A1 cAMP
- Type: biochemical
measure: IC50

For C[C@H](Nc1nc(C(=O)N2CC(CNC(=O)OC(C)(C)C)C2)c2sccc2n1)c1cncc(F)c1 [Example Z404] the molecule record lists IC50 as > 500 nM

Query Cc1cc2nc(N[C@@H](C)c3ccccn3)nc(C(=O)NCc3ccccn3)c2s1 [Example Z461] yields IC50 of > 500 nM

Just so you know, measured IC50 for Cc1cc2nc(N[C@@H](C)c3cncc(F)c3)nc(C(=O)N3CC(N4CCCC4)C3)c2s1 [Example Z540] came out at > 500 nM

Given item C[C@H](Nc1nc(C(=O)N2CC(CNS(C)(=O)=O)C2)c2sccc2n1)c1cncc(F)c1 [Example Z531] , the value recorded as its IC50 is > 500 nM

Measured IC50 of CCNC(=O)CC1CN(C(=O)c2nc(N[C@@H](C)c3cncc(F)c3)nc3cc(C)sc23)C1 [Example Z495] : > 500 nM

New cases:
Noted for Cc1cc2nc(N[C@@H](C)c3cncc(F)c3)nc(C(=O)N3CC(NC(=O)C4CCCO4)C3)c2s1 (stereo partly shown) [Example Z541] : its IC50 reads 100 to 500 nM

Entry Cc1cc2nc(N[C@@H](C)c3cncc(F)c3)nc(C(=O)N3CC[C@H]3C)c2s1 [Example Z595] , IC50 reported as < 10 nM

###

- measured.target: adenosine A2A receptor (Homo sapiens (Human))
- experiment.summary: Adenosine receptor activity assay (Table 1), A2A activity
- Format: biochemical
- cond: read-out: Ave A2A cAMP IC50
measure: IC50

IC50 reported for this compound `C[C@H](Nc1nc(C(=O)N2CC[C@@H](O)C2)c2sccc2n1)c1cccnc1` : > 0.5 µM

// IC50 value for `CC(C)(C)OC(=O)N[C@@H]1CCN(C(=O)c2nc(NCc3cc(F)cc(F)c3)nc3ccsc23)C1` : 0.1 to 0.5 µM

Record `Cc1cc2nc(N[C@@H](C)c3cncc(F)c3)nc(C(=O)N3CC(N4CCCC4)C3)c2s1` , field IC50: 0.1 to 0.5 µM

Kindly consider the entry below.
# compound `COc1ccc(CNc2nc(C(=O)N3CCCC3)c3sccc3n2)cn1` ; its IC50 = 0.05 to 0.1 µM

###

- experiment.summary: Liver microsome (LM) intrinsic clearance, human
- Format: in vitro ADME
measure: LM CLint (μL/min/mg/protein)

Illustrative cases are given below, each with its answer.
# LM CLint (compound: C[C@H](Nc1nc(C(=O)N2CCCC2)c2sccc2n1)c1ccccn1 [Example Z10] ) is 16.29

Reported LM CLint ( C[C@H](NC(=O)c1nc(N[C@@H](C)c2ccccn2)nc2ccsc12)c1ccccn1 [Example Z54] ) = 14.10

1: C[C@H](Nc1nc(C(=O)N2CC[C@H](F)C2)c2sccc2n1)c1cccnc1 [Example Z9]
2: C[C@H](Nc1nc(C(=O)N2CCC2)c2sccc2n1)c1cccnc1 [Example Z2]
3: C[C@H](Nc1nc(C(=O)N2CC[C@@H](O)C2)c2sccc2n1)c1cccnc1 [Example Z29]
Q: Form: Sort by [LM CLint] Order [ ascending ] State the ranking by listing the labels in the requested order.
A: 3, 1, 2

###

- experiment.summary: Liver microsome intrinsic clearance (LM CLint), rat
- Assay type: in vitro ADME
measure: LM CLint (μL/min/mg/protein)

# count of solved cases: 6
LM CLint recorded for this compound, `Cc1cc2nc(N[C@@H](C)c3cncc(F)c3)nc(C(=O)NCC[C@H]3CCNC3)c2s1` , is 48.47

# LM CLint of `COc1ccc([C@@H](C)Nc2nc(C(=O)NCc3ccc(OC)nc3)c3sccc3n2)cc1` = 75.91

LM CLint reading for `C[C@H](Nc1nc(C(=O)N2CC(NC(=O)C3CC3)C2)c2sccc2n1)c1cncc(F)c1` : 16.99

Documented LM CLint of `C[C@H](Nc1nc(C(=O)N2CC(N)C2)c2sccc2n1)c1cncc(F)c1` : 5.32

What the record says about `Cc1csc2c(C(=O)N3CCC3)nc(N[C@@H](C)c3cncc(F)c3)nc12` : LM CLint is 56.26

In plain terms, `C[C@H](Nc1nc(C(=O)N2CC(CN)C2)c2sccc2n1)c1cncc(F)c1` has a documented LM CLint of 9.09

P: Cc1cc2nc(N[C@@H](C)c3cncc(F)c3)nc(C(=O)N3CC(N)C3)c2s1
Q: Cc1cc2nc(N[C@@H](C)c3cncc(F)c3)nc(C(=O)N3CC[C@H](N)C3)c2s1
Q: Given the listed records, identify the one among P and Q with higher LM CLint. Select an item and report its label.
A: Q

P: COc1cccc(CNC(=O)c2nc(N[C@@H](C)c3ccccn3)nc3c(C)csc23)n1
Q: CC(=O)Nc1ccc(CCNC(=O)c2nc(N[C@@H](C)c3cncc(F)c3)nc3ccsc23)cc1
Q: Between these two entries, P and Q , state which has the higher LM CLint. Lab note: record the label of whichever item you select.
A: P
